Protocol: yeast display, Sf9 membrane polyspecificity reagent, FACS + sequencing; frameworks hold sequencing errors
Readout: polyreactivity (PSR sort gate)

Example entries begin here.
QVQLVESGGGLVQAGGSLRLSCAASGSIFYYNAMGWYRPAPGKERELVAAITWSGGTYYADSVKGRFTISRDNAKNTVYLQMNSLKPEDTAVYYCNGARLYKWSFTPKFEMDHWGQGTQVTVSS	low polyreactivity
QVQLVVSGGGLVQAGGSLRLSCAASGFTFRYYAMGWYRQAPGKEREMVAAITRGAGSTYYADSVKGRFTITRDNAKNTVYLQMNSLKPEDTAVYYCAAEFFQYYVATPFDPYNYWGQGTQVTVSS	low polyreactivity
QVQLVESGGGLVQAGGSLRLSCAASGGTFQDYGMGWYRQAPGKERELVAAITWSGGSTYYADSVKGRFTISRDNAKNTVYLQMNSLKPEDTAVYYCAAVYADVYLYLTAYDYWGQGTQVTVSS	low polyreactivity
QVQLEESGGGLVQAGGSLRLSCAASGSTIHSYAMGWYRHAPGKERELVAAITTTGTRTYYADSVKGRFTISRDNAKNTVYLQMNSLKPEDTAVYYCNAQRLQAHRTSRRYGFWGQGTQVTVSS	high polyreactivity
QVQLVESGGGLVQAGGSLRLSCAASGFTFKYYAMGWYRQAPGKERELVATITSGGRTNYADSVKGRFTISRDNAKNTVYLQMNSLKPEDTAVYYCATPYSAYWQNERDYWGQGTQVTVSS	high polyreactivity
QVQLVESGGGLGQAGGSLRSSCAASGSIICYYAMGWYRQAPGKEWELVATITSGGSTSYADSVKGRFTISRDNAKNTVHLQMNSLKPEDTAVYYCAARNVTKSTYNYWGQGTQVTVSS	low polyreactivity

Find the recorded polyreactivity (PSR sort gate) belonging to QVHLVESGGGLVQPGGTLRLTCAASGSTFGSNARGWYRLAPGKESELVAAITRRGGSTYYADSVKGRFTISRDNAKNTVDLQMNSLKPEDTAVYYCDNVYYYLYTRYDYWGQGTEVTVSS and report it.
low polyreactivity

Continue with QVQLVESGGGLVQAGGSLRLSCAASGIIFRDNAMGWYRQAPGTERELVAAIDSSGGTTYADSVKGRFTISRDNAKNTVYLQMNSLKPEDTAVYYCATEVYSTVSYYGYDYYGRNYYYWGQGPQVTVSS
low polyreactivity

Continue with QDQLVESGGGLVQAGRSLRLSCAASGSIYAFYAMGWYRQAPRKERELVAAISSRGGRTYYADSVKGRFTISRDNAKNTVYLQMNRLKPEETAVYYCAALYWRYLGYPVVRYYYWGQGTQVNVSS
high polyreactivity

====

Protocol: yeast display, Sf9 membrane polyspecificity reagent, FACS + sequencing; frameworks hold sequencing errors
Readout: polyreactivity (PSR sort gate)

QVQLVESGGGLVQAGGSLRLSCAASGRIFDRNAMGWYRQAPGKERELVARIDPGDDTNYADSVKGRFTISRDNAKNTVYLQMNSLKPEDTAVYYCAADGVVVVAADMYYWGQGTQVTVSS	low polyreactivity
QVQLVESGVGLVQAGGSLLLSCAASGRIFRVYAMGWYRQAPGKERELVAAISWSGGRTYYADSVKGRFTISRDNAKNTVYLQMNSLKPEDTAVYYCAAERCGPTYYSGGDYDYWGQGTQVTVSS	high polyreactivity
QVQLVESGGGLVQAGGSLRLSCAASGYIIGRYVMGWYRQAPGNERELVAAITASGGSTNYADSVKGRFTISRDNAKNTVYLQMNSLKPEDTAVYYCAADYSWYYFDFEYWGQGTQVTVSS	high polyreactivity
QVQLVESGGGLVQAGGSLRLSCAASGFIFANYAKGWYRPAPGKERELVAAISSGGITYYADSVKGRFTISRDNAKNTVYLQMNSRKPEDTAVYYCACDVRYQDRSGEYHHWDGDYWGQGTQVTVTS	low polyreactivity

Find the recorded polyreactivity (PSR sort gate) belonging to QVQLVESGGGLVQAGGSLRLSCAASGSTFNINAMGWYRQAPGKERELVAAISSRGGSTYYADSVKGRFTISRDNAKNTVYLQMNSLKPEDTAVYYCAASPRRVENAGRVRLYYWGQGTQVTVSS and report it.
high polyreactivity

Continue with QVQLVESGGGLVQAGGSLRLICAATGLIFPLYDMGWYRQAAGKERELVAAITLGGGGTYYADSVKGRFTISRDNAKNTVYLQMNSLKPEDTAVYYCNADYDIAAQLRTYITFDYWGQGTQVTVSS
low polyreactivity

Continue with QVQLVESGGGLVQAGGSLRLSCAASGITFWNAMGWYRQAPGKERELVAAITSSGGSTYYADSVKGRFTISRDNAKNTVYLQMNSLKPEDTAVYYCAADYGRTRYDMDYWGQGTQVTVSS
low polyreactivity

Continue with QVQLVESGGGLVQAGGSLRLSCAASGRTFYSNAMGWYRQAPGKERELVATISSSGGSTYYADSVKGRFTISRDNAKNTVYLQMNSLKPEDTAVYYCAADPSGDYWGQGTQVTVSS
low polyreactivity

Continue with QVQLVESGGGLVQAGGSLRLSCAASGRIFYPYAMGWYRQAPGKERELVARITWTTTSTYYADSVKGRFTISRDNAKNTVYLQMNSLKPDDTAVYYCAADGRVRTWGNLRDYWGQGTQVTVSS
high polyreactivity

Continue with QVQLVESGGGLVQAGGSLRLSCAASGFTFYPYAMGWYRQAPGKERELVARITWSGGSTSYADSVKGRFTISRDNAKNTVYLQMNSLKPEDTAVYYCSKAYHHSEFDYWGLGTQVTVSS
high polyreactivity

Continue with QVQLVESGGGLVQAGGSLRLSCAATGMIYERNAMGWYRQAPGKERELVAAITRSGSRTYYADSVKGRFTISRDNAKNTVYLQMNSLKPEDTAVYYCAKRSGYRAHYGYWGQGTQVTVSS
high polyreactivity

====

Protocol: yeast display, Sf9 membrane polyspecificity reagent, FACS + sequencing; frameworks hold sequencing errors
Readout: polyreactivity (PSR sort gate)

QVQLVESGGGLVQAGGSLRLSCAASGSIFWQNTMGWYRQAPGKERELVAAISWSGGRTYYADSVKGRFTISRDNAKNTVYLQMNSLKPEDTAVYYCAAAFSPGWWSRHTYDYDYWGQGTQVTVSS	high polyreactivity
QVHLVESGGGLVQAGGSLRLSCAASGLTFHVYAMGWYRQAPGKERELVAAISWSGGSTYYADSVKGRFTISRDNAKNTVYLQMNSLKPEDTAVYYCAAESLSQGIWYDYWGQGTQVTVSS	high polyreactivity
QVQLVESGGGLVQARGSLRLSCAASGFTFQNNAMGWYRQAPGKERELVAAISRSGGSTYYADSVKGRFTISRDNANITVYLQMNSLKPEDTAVYYCAKSSGTLWITKYDYWGQGTQVTVSS	low polyreactivity
QVQLVESGGGLVQAGGSLRLSCAASGNTFGENAMGWDRQAPRKETELVAAITYGGTTNYADSVKGRFTISRDNAKNTVYLQMNSLKPEDTAVYYCNAKFGISQPGHSGLLKMDYWGQGTQVTVSS	low polyreactivity
QVQLVESGGGLVQAGGSLRLSCAASGRIYGTNAMGWYRQAPGKEMELVAAINGSDSSTYYADSVKGRFTISRDNAKNTVYLQINSLKPEDTAVYYCNADWSGAPERSTDGYDYWGQGTQVTVSS	low polyreactivity
QVQLVESGGGLVQAGGSLRLSCAASGSTFTYNAMGWYRQAPGKERELVASISSGTTTYYADSVKGRFTISRDNAKNTVYLQMNSLKPEDTAVYYCAALVSPDRGYYSYWYIYDYWGQGTQVTVSS	low polyreactivity
QVQLVESGGGLVQAGGSLRLSCAASGSTIRSNAMGWYRQAPGKERELVAAITSGGSTYYAESVKGRFTISRDNAKNTVYLQMNSLKPEDTAVYYCAVRYYRRRYDYWGQGTQVTVSS	low polyreactivity
QVQLVESGGGLVQAGGSLRLSCAASGSTISPYAMGWYRQAPGKEREFVAAISRSGGSTYYADSVKVRFTISRDNAKNTVYLQMNSLKPEDTAVYYCARRYARITPVYPPLNYWGQGTQVTVSS	high polyreactivity
QVQLVESGGGLVQAGGSLRLSFAASGFTFRLYAMGWYRQAPGKERELVAAITSSSGSTYYADSVKGRFTISRDNAKNTVYLQMNSLKPEDTAVYYCNADRGDSSRRYGYWGQGTQVTVSS	high polyreactivity
QVQLVESGGGIVKAAGSLRLSCAASGSTFKKYAMGWDRQAPRKERELVASISSGGGTYYADSVKGRFTISRDNAKNTVYVQMNSLKPEDTAVYYCAARYHYAKSPYRYYYWGQGTQVTVSS	high polyreactivity

Now for the sequence whose polyreactivity (PSR sort gate) we want.
Find the recorded polyreactivity (PSR sort gate) belonging to QVQLVESGGGLVQAGGSLRLSCAASGSILWVNAMGWYRQAPGKERELVAAITSGGDSTNYADSVKGRFTISRDNAKNTVYLQMNSLKPEDTAVYYCNAEFWLNEDLDYDTSYDYWGQGTQVTVSS and report it.
low polyreactivity

====

Protocol: yeast display, Sf9 membrane polyspecificity reagent, FACS + sequencing; frameworks hold sequencing errors
Readout: polyreactivity (PSR sort gate)

QVQLVESGGGLVQAGGSLRLSCAASGLIFRLYAMGWYRQAPGKERELVAALSISGGSTYYADSVKGRFTLSRDNAKNTVYLQMNSLKPEDTAVYYCAARYYRGGPYYKYDYWGQGTQVTVSS	high polyreactivity
QVQLVQSGGGLVHAGGSLRLSCAASGRIFGINAMGWYIQAPGKERELVAAINWSGGSTYYADSVKGRFTISRDNAKNTVYLQMNSLKPEDTAVYYCADQKYQRVGYWGQGTQVTVSS	high polyreactivity
QVQLVESGGGLVQAGGSLRLSCAASGITFGYYAMGLYRQAPGKERELVAAISWSGGRTYYADSVKGRLTISRDNAKNTVYLQMNSLKPEDTAVYYCATRYPVRRGSGPSYDYWGQGTQVTVSS	high polyreactivity
QVQIVESGGGLVQAGGSLRLSCAASGRTFNAYAMGWYRPAPGKERELVAAISGNGGSTYYADSVKGRFTISRDNAKNTVYLQMNSLKPEDTAVYYCYKVQRSLLGYNSWGQGTEVTVSS	high polyreactivity
QVQLVESGGGLVQAGGSLRLSCAASGSTWNRNPMGWYRQAPGKERELVAAISWRGDSTSYADSVKGRFTISRDNAKNTVYLQMNSLKPEDTAVYYCATAHDYAFYRYWYVPSEYNYWGQGTQVTVSS	low polyreactivity
QVQLVESGGGLVQAGGSLRLSCAASGSIFRYNAMGWYRQAPGKERELVASISWSGGSTYYADSVKGRFTISRDNAKNTVYLQMNSLKPEDNAFYYCNVYGKYFRSRYDSWGQGTQVNVSS	high polyreactivity
QVQLVETGGGLVQAGGSLRLSCAASGSIFKNNAMGGYRQAPGKERELVAAIRSYGGSTYYADSVKGRFTISRDNAKNTVYLQMKSLKPEDTAVYYCAARYRSYPTYYQYNYWGQGTQVTVSS	high polyreactivity
QVQLVESGGGLVHAGGSLRLSCAASGIIFRFYAMGWYRQAPAKERELVAAISSGGSTYYADSVKGRFTISRDNAKNTVYLQMIRLKPEDTAVYYCNARVRYKRTVRYGYWGQGTQVTVSS	high polyreactivity

Find the recorded polyreactivity (PSR sort gate) belonging to QVQLVESAGGLVQAGGSLSLSCAASGRIFNLYAMGWYRKAPGKERELVAAIRGRGTSTYYADSVKGRFTISRDNAKNTVYLQMNSLKPEDTAVYYCAREGGYGPTLQDTSRYEYWGQGTQVTVSS and report it.
low polyreactivity

Continue with QVQLVESGGGLVQAGGSLRLSCAASGSIFSAYAMGWYRQAPGKEREFVAGITSSGGRTYYADSVKGRFTISRDNAKNTVYLQMNSLKPEDTAVYYCAARFYKKDRRAYGYWGQGTQVTVSS
high polyreactivity

Continue with QVQLVESGGGLVQAGGSLRLSCAASGSTFVRNAMGWYRQAPGKERELVAAISRSGGRTYYADSVKGRFTISRDNAKNTVYLQMNSLKPEDNAVYYCNAVLGYYSYDYWGQGTQVTVSS
high polyreactivity
